target_entity: human thyroid hormone receptors TRα1 (Homo sapiens, UniProt P10827)
Construct: made in house; host or cells: Sf9 insect cells (baculovirus)
Sequence (P10827 1-410 isoform P10827-2): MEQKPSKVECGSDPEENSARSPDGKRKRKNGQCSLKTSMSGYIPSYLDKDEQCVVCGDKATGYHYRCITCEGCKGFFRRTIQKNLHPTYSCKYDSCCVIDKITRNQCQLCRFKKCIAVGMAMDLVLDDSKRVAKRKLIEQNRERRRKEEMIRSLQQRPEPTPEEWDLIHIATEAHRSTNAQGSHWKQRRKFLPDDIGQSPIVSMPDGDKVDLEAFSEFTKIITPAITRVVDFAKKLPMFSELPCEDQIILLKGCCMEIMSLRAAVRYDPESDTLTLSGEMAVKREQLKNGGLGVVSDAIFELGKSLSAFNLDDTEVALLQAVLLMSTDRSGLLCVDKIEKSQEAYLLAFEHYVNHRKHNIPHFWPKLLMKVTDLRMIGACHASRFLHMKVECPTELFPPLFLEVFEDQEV
Sequence (P19793 1-462 partner): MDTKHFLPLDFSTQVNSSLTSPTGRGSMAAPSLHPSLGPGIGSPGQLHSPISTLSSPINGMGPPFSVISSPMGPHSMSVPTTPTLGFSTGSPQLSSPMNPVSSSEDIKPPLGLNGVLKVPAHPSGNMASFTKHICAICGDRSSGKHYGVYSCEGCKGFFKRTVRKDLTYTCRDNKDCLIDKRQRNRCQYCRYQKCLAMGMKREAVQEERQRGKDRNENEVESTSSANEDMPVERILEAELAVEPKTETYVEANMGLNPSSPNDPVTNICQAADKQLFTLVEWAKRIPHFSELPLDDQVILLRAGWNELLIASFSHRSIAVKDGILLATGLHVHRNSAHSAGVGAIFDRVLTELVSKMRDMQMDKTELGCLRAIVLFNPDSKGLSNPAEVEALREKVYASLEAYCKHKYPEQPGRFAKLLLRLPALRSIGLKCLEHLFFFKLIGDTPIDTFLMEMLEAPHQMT
assay: Receptor binding to TRα1 (gel filtration and scintillation proximity assay, labeled T3)
condition_context: SPA data; read-out: Ki TRα
measurement_type: Ki

Some solved entries appear below for comparison.
>  <compound_smiles>
COc1ccc(Cc2c(C)cc(OCP(=O)(O)O)cc2C)cc1C(C)C

>  <target_entity>
human thyroid hormone receptors TRα1 (Homo sapiens, UniProt P10827)

>  <Ki>
> 2000 nM

$$$$
>  <compound_smiles>
Cc1cc(OCP(=O)(O)O)cc(C)c1Cc1ccc(O)c(C(=O)NC(C)C)c1

>  <target_entity>
human thyroid hormone receptors TRα1 (Homo sapiens, UniProt P10827)

>  <Ki>
> 2000 nM

$$$$

Attention now turns to another entry.
Prompt line: Quote Ki reported for Cc1cc(/C=C/P(=O)(O)O)cc(C)c1Cc1ccc(O)c(C(C)C)c1 please.
Response line: > 2000 nM

The reported measurements were obtained from patent US20090028925A1.
